- target.or.test.system: Dihydroorotate dehydrogenase (fumarate) (Saccharomyces cerevisiae (strain ATCC 204508 / S288c), UniProt P28272)
- Sequence (P28272 whole entry): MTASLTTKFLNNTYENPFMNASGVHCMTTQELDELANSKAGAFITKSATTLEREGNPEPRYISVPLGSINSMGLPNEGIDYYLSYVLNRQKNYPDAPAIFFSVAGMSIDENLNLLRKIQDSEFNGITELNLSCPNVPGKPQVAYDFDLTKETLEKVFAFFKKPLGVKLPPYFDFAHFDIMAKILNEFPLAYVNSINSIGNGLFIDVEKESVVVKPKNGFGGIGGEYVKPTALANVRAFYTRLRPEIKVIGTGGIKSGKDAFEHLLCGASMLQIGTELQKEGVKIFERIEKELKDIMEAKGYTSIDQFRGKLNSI
- assay.name: Enzymatic Assays
pIC50: −log10 of the molar value.

- compound: "Cc1ccccc1/C=C/c1cc(O)c2ccccc2n1 [US8703811, 2]"
  pIC50: "< 5.00"

* * *

- target.or.test.system: Dihydroorotate dehydrogenase (quinone), mitochondrial [100-517] (Plasmodium berghei (strain Anka), UniProt A0A509AEH5)
- Construct: 100-517
- Sequence (A0A509AEH5 whole entry): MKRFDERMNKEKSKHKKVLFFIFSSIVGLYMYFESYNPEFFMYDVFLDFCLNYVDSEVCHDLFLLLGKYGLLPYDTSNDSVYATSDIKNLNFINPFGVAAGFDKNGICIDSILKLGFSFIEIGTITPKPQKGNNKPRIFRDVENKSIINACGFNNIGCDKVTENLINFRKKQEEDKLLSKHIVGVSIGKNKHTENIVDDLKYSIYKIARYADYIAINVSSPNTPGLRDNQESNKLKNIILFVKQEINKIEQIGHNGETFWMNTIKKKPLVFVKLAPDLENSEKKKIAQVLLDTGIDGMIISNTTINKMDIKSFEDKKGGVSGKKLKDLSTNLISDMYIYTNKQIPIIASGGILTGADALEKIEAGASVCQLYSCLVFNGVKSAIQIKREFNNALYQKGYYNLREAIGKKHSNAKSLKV
- assay.name: Enzymatic Assays
pIC50: −log10 of the molar value.

- compound: "Fc1cc(I)ccc1Nc1ccnc2cc(Cl)ccc12 [US8703811, 4]"
  pIC50: "< 5.00"

Data credit: BindingDB's records for patent US8703811
